Biological target: ERK1 (Homo sapiens, UniProt P27361)
Sequence (P27361 whole entry, species assumed): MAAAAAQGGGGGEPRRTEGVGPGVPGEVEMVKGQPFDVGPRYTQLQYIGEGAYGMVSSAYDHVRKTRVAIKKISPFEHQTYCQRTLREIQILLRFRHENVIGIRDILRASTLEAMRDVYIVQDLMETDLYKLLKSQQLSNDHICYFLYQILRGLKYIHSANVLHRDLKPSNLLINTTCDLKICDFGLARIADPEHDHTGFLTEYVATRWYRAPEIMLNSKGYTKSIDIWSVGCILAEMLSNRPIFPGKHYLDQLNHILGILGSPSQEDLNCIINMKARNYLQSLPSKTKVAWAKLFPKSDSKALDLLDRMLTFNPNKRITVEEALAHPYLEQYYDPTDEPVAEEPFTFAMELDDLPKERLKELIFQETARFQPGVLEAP
Assay: Kinase profiling ERK1
Type: biochemical
Conditions: 100 micromolar inhibitor concentration; 100 is no change
Please provide measured residual kinase activity, ERK1 for the entries that follow.
Answer with the value's number alone.

Q: Request: residual kinase activity, ERK1, test system ERK1 (Homo sapiens, UniProt P27361), entry O=C(Nc1nc2ccc(O)cc2s1)c1ccccc1
A: 67

Q: Request body: readout residual kinase activity, ERK1, system ERK1 (Homo sapiens, UniProt P27361), query O=C(Nc1nc2cc(O)ccc2s1)c1ccncc1 . Return the value.
A: 88

Q: Lab note: need residual kinase activity, ERK1 with ERK1 (Homo sapiens, UniProt P27361) for entry COc1ccc2sc(NC(=O)c3ccc(NC(C)=O)cc3)nc2c1 , please look it up.
A: 87

Q: Report residual kinase activity, ERK1 for O=C(Nc1nc2cc(O)ccc2s1)c1ccccn1 tested on ERK1 (Homo sapiens, UniProt P27361).
A: 97

Q: What reported residual kinase activity, ERK1 corresponds to CC(=O)Nc1cccc(C(=O)Nc2nc3ccc(O)cc3s2)c1 on ERK1 (Homo sapiens, UniProt P27361)?
A: 84

Q: Lab note: need residual kinase activity, ERK1 for O=C(Nc1nc2ccc(O)cc2s1)c1ccccn1 on ERK1 (Homo sapiens, UniProt P27361), anyone have it?
A: 74

Q: Recorded residual kinase activity, ERK1 for CC(=O)Nc1ccc(C(=O)Nc2nc3cc(O)ccc3s2)cc1 with ERK1 (Homo sapiens, UniProt P27361), please?
A: 70

Q: Item: O=C(Nc1nc2cc(O)ccc2s1)c1cccnc1 Test system: ERK1 (Homo sapiens, UniProt P27361) Read-out: residual kinase activity, ERK1 Value: ?
A: 93

Q: Write down the reported residual kinase activity, ERK1 of CC(=O)Nc1ccccc1C(=O)Nc1nc2ccc(O)cc2s1 , test system: ERK1 (Homo sapiens, UniProt P27361).
A: 18

Q: // fetch ERK1 (Homo sapiens, UniProt P27361) residual kinase activity, ERK1 for O=C(Nc1nc2ccc(O)cc2s1)c1cccnc1
A: 81

Q: For ERK1 (Homo sapiens, UniProt P27361), provide residual kinase activity, ERK1 of COc1ccc2sc(NC(=O)c3cccc(NC(C)=O)c3)nc2c1 please.
A: 86

Q: Recorded residual kinase activity, ERK1 for CC(=O)Nc1nc2cc(C)ccc2s1 with ERK1 (Homo sapiens, UniProt P27361), please?
A: 91

Q: # value lookup — system ERK1 (Homo sapiens, UniProt P27361), readout residual kinase activity, ERK1, item CC(=O)Nc1cccc(C(=O)Nc2nc3cc(O)ccc3s2)c1
A: 54

Q: What is its residual kinase activity, ERK1 for ERK1 (Homo sapiens, UniProt P27361)? Entry: O=C(Nc1nc2ccc(O)cc2s1)c1ccncc1
A: 84

Q: Request: residual kinase activity, ERK1, test system ERK1 (Homo sapiens, UniProt P27361), entry CC(=O)Nc1nc2ccccc2s1
A: 83

Q: Recall the recorded residual kinase activity, ERK1 for CC(=O)NC(C)C(=O)Nc1nc2ccc(C(F)(F)F)cc2s1 (stereo not shown) with ERK1 (Homo sapiens, UniProt P27361) and state it.
A: 94
